Value source: patent EP1704862A1

# Run description: Apparent permeability (Papp) across TC-7 cell monolayer
# Assay type: in vitro ADME
# Condition context: human, Caco-2; TC-7 cells, pH 6.5/7.4, average of two experiments
Quantity measured: Papp B→A (×10⁻⁶ cm/s)

Compound structure string | Quantity measured | Reported
OC[C@@H](O)[C@@H](O)[C@H](O)c1cnc([C@@H](O)[C@H](O)[C@H](O)CO)cn1 | Papp B→A | 72.9

====

# Run description: Solubility in water
# Format: physicochemical
# Condition context: pH 7.4, aqueous buffer

Compound | solubility
OC[C@@H](O)[C@@H](O)[C@H](O)c1cnc([C@@H](O)[C@H](O)[C@H](O)CO)cn1 [Compound 1.1] | ≤ 100 mM

====

# System: NO Synthesis
# Run description: IL-1β induced NO synthesis in chondrocyte culture (nitrite, DAN fluorometric method)
# Assay type: cell-based, New Zealand white rabbits
# Condition context: Oryctolagus cuniculus, rabbit articular chondrocytes, stimulation with 0.3 ng/mL of IL-1β, 24 h, read-out: NO Synthesis inhibitory activity IC50
pIC50: −log10 of the molar value.

Compound structure string | pIC50
OC[C@@H](O)[C@@H](O)[C@H](O)c1cnc([C@@H](O)[C@H](O)[C@H](O)CO)cn1 | 5.10

====

# Run description: Apparent permeability (Papp) across TC-7 cell monolayer
# Type: in vitro ADME
# Condition context: human, Caco-2; TC-7 cells, pH 6.5/7.4, average of two experiments
Quantity measured: Papp A→B (×10⁻⁶ cm/s)

Compound structure string | Quantity measured | Reported
OC[C@@H](O)[C@@H](O)[C@H](O)c1cnc([C@@H](O)[C@H](O)[C@H](O)CO)cn1 | Papp A→B | 113

====

# System: PGE2 Synthesis
# Run description: IL-1β induced PGE2 synthesis in chondrocyte culture (RIA)
# Assay type: cell-based, New Zealand white rabbits
# Condition context: Oryctolagus cuniculus, rabbit articular chondrocytes, stimulation with 0.3 ng/mL of IL-1β, 24 h, read-out: PGE2 Synthesis inhibitory activity IC50
# Method: Inhibitory effects of compounds of this invention were assessed according to the following in vitro assay: Normal articular chondrocytes were obtained from young New Zealand white rabbits. […] PGE2 released into the culture medium was determined with a RadioImmunoAssay (RIA) performed according to the instructions of the PGE2 antiserum manufacturer (Sigma). […] The supernatant was counted in 7 ml of Ultima-Gold MV® and the amount of radioactivity measured in a Packard Tricarb β-counter. […]
pIC50: −log10 of the molar value.

Compound structure string | pIC50
OC[C@@H](O)[C@@H](O)[C@H](O)c1cnc([C@@H](O)[C@H](O)[C@H](O)CO)cn1 | 5.40
